Observed IC50 for UniProt:Q12809, reported per entry below.

Sample records with IC50:
1. Cn1nccc1Cc1cn(-c2ccc(F)c(Cl)c2)nn1 [Example 109]	> 100 µM
2. Clc1ccc(-n2cc(Cn3ncnc3C3CC3)nn2)cc1 [Example 16]	> 100 µM

Please turn your attention to the following entry.
Lab note: CS(=O)(=O)c1cccc(-n2cc(Cn3ccnc3CCF)nn2)c1 [Example 80] gave IC50 of > 100 µM

====

Reported pIC50, hERG-receptor (Homo sapiens (Human), UniProt Q12809).
Remember, pIC50 is on a log scale: it is -log10 of the molar concentration.

1) FC(F)(F)c1cccc(-n2cc(Cn3ccnc3C3CC3)nn2)c1	5.29
2) CCc1nccn1Cc1cn(-c2ccc(F)c(C(F)F)c2)nn1	4.78
3) Cc1ccc(-n2cc(Cn3ccnc3C)nn2)cc1F	5.19

Entry "Clc1ccc(-n2cc(Cn3cnc(C4CC4)n3)nn2)cc1" ; assay system hERG-receptor (Homo sapiens (Human), UniProt Q12809); pIC50 recorded at 4.35

hERG-receptor (Homo sapiens (Human), UniProt Q12809) assay, molecule "Cc1nccn1Cc1cn(-c2ccc(Cl)c(OC(F)F)c2)nn1" , recorded pIC50 = 5.02

Here Nc1nccn1Cc1cn(-c2ccc(F)c(C(F)F)c2)nn1 [Example 113B] was tested on hERG-receptor (Homo sapiens (Human), UniProt Q12809), and its pIC50 came to 4.96

meta.source: patent US9981950B2
